Test system: VA-ES-BJ tumor spheroid viability
Test: Anticancer human tumor VA-ES-BJ cell line growth inhibition; active = viability on the fitted dose curve at most 10% of control; inactive = the rest;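 note: spheroids exposed to compounds for seven days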
Conditions: second compound 100 µM; first compound 0.3 µM; spheroids with HUVEC and MSC
Method: Multicellular complex tumor spheroid response to DNA repair inhibitors in combination with DNA-damaging drugs This study explores the anticancer activities of DNA-damaging drugs and inhibitors of DNA damage repair, both as single agents and in combinations. […] Twenty-six patient-derived or established malignant cell lines were evaluated representing sarcoma, melanoma, small cell lung cancer (SCLC), non-small cell lung cancer (NSCLC), as well as bladder, ovarian and pancreatic cancers. […]
Valid outcomes are listed here; reply with one: y = active, n = inactive

CNCc1ccc(-c2cc(-c3nc(-c4ccc(S(=O)(=O)C(C)C)cc4)cnc3N)on2)cc1 + Cn1nnc2c(C(N)=O)ncn2c1=O; n
Cc1sc2c(c1C)C(c1ccc(Cl)cc1)=NC(CC(=O)Nc1ccc(O)cc1)c1nnc(C)n1-2 (centres undefined) + Cn1nnc2c(C(N)=O)ncn2c1=O; n
Cn1ncnc1[C@H]1c2n[nH]c(=O)c3cc(F)cc(c23)N[C@@H]1c1ccc(F)cc1 + Cn1nnc2c(C(N)=O)ncn2c1=O; y

--- query ---
Q) Returns: the outcome recorded for O=C(c1cc(Cc2n[nH]c(=O)c3ccccc23)ccc1F)N1CCN(C(=O)C2CC2)CC1 + Cn1nnc2c(C(N)=O)ncn2c1=O in this assay.
A) n

====

system: VA-ES-BJ tumor spheroid viability; assay: Anticancer human tumor VA-ES-BJ cell line growth inhibition; conditions: second compound 0.03 µM; first compound 1 µM; stronger effect = lower value; spheroids with HUVEC and MSC;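 note: spheroids exposed to compounds for seven days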;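 for viability, T/C: percent of DMSO vehicle control viability so 100% = untreated growth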
METRIC: viability, T/C (%)
Enter your answer as a number in %; do not include the unit.

These solved cases illustrate the format of a correct answer.
CC1COCCN1c1cc(-c2ccnn2C)c2ccnc(-c3ccn[nH]3)c2n1 (stereo unspecified) + CC[C@@]1(O)C(=O)OCc2c1cc1n(c2=O)Cc2cc3c(CN(C)C)c(O)ccc3nc2-1; 6.37
COc1cc(C)[nH]c(=O)c1CN1CCc2c(Cl)cc(C(OC)C3COC3)c(Cl)c2C1=O (stereo unspecified) + CC[C@@]1(O)C(=O)OCc2c1cc1n(c2=O)Cc2cc3c(CN(C)C)c(O)ccc3nc2-1; 46.9
[2H]c1nc(C)nc([2H])c1-c1cc(NC[C@@H](C)c2cccc3c(C(=O)NC)ccnc23)ncn1 + CC[C@@]1(O)C(=O)OCc2c1cc1n(c2=O)Cc2cc3c(CN(C)C)c(O)ccc3nc2-1; 50.2
CC(C)n1c(=O)n(C)c2cnc3cc(F)c(-c4ccc(OCCCN5CCCCC5)nc4)cc3c21 + CC[C@@]1(O)C(=O)OCc2c1cc1n(c2=O)Cc2cc3c(CN(C)C)c(O)ccc3nc2-1; 26.9
Cc1cc(C)c(CNC(=O)c2cc(-c3ccc(CN4CCOCC4)cc3)cc3c2cnn3C2CCCC2)c(=O)[nH]1 + CC[C@@]1(O)C(=O)OCc2c1cc1n(c2=O)Cc2cc3c(CN(C)C)c(O)ccc3nc2-1; 36.1

Shift focus to the following entry.
Q) For the compound shown here, COc1ccc([C@@H](O)c2cc(-c3ncnc4cc(N5CCOCC5)ccc34)c(F)cc2Cl)nn1 + CC[C@@]1(O)C(=O)OCc2c1cc1n(c2=O)Cc2cc3c(CN(C)C)c(O)ccc3nc2-1 , give the reported viability, T/C.
A) 26.2

====

tested on: VA-ES-BJ tumor spheroid viability; assay: Anticancer human tumor VA-ES-BJ cell line growth inhibition; conditions: second compound 0.00949 µM; first compound 0.0949 µM; stronger effect = lower value; spheroids with HUVEC and MSC;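 note: spheroids exposed to compounds for seven days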;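 for viability, T/C: percent of DMSO vehicle control viability so 100% = untreated growth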
METRIC: viability, T/C

The examples below pair each entry with its known result.
O=C(c1cc(Cc2n[nH]c(=O)c3ccccc23)ccc1F)N1CCN(C(=O)C2CC2)CC1 + CC[C@@]1(O)C(=O)OCc2c1cc1n(c2=O)Cc2cc3c(CN(C)C)c(O)ccc3nc2-1; 54.4%
Cn1ncnc1[C@H]1c2n[nH]c(=O)c3cc(F)cc(c23)N[C@@H]1c1ccc(F)cc1 + CC[C@@]1(O)C(=O)OCc2c1cc1n(c2=O)Cc2cc3c(CN(C)C)c(O)ccc3nc2-1; 28.4%
CNCc1ccc(-c2cc(-c3nc(-c4ccc(S(=O)(=O)C(C)C)cc4)cnc3N)on2)cc1 + CC[C@@]1(O)C(=O)OCc2c1cc1n(c2=O)Cc2cc3c(CN(C)C)c(O)ccc3nc2-1; 59%

Query compound follows.
Q) # lookup: viability, T/C of Cc1sc2c(c1C)C(c1ccc(Cl)cc1)=NC(CC(=O)Nc1ccc(O)cc1)c1nnc(C)n1-2 (centres undefined) + CC[C@@]1(O)C(=O)OCc2c1cc1n(c2=O)Cc2cc3c(CN(C)C)c(O)ccc3nc2-1
A) 40.1%

====

system: VA-ES-BJ tumor spheroid viability; assay: Anticancer human tumor VA-ES-BJ cell line growth inhibition; conditions: curve of first compound; second compound 100 µM; spheroids with HUVEC and MSC;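 note: spheroids exposed to compounds for seven days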
METRIC: IC50

In the examples that follow, each entry is paired with its recorded IC50.
Cn1ncnc1[C@H]1c2n[nH]c(=O)c3cc(F)cc(c23)N[C@@H]1c1ccc(F)cc1 + Cn1nnc2c(C(N)=O)ncn2c1=O; < 0.00949 µM
Cc1cc(C)c(CNC(=O)c2cc(-c3ccc(CN4CCOCC4)cc3)cc3c2cnn3C2CCCC2)c(=O)[nH]1 + Cn1nnc2c(C(N)=O)ncn2c1=O; > 10 µM
CC(C)n1c(=O)n(C)c2cnc3cc(F)c(-c4ccc(OCCCN5CCCCC5)nc4)cc3c21 + Cn1nnc2c(C(N)=O)ncn2c1=O; > 10 µM

Now take the following compound into account.
Q) Tell me the measured IC50 of [2H]c1nc(C)nc([2H])c1-c1cc(NC[C@@H](C)c2cccc3c(C(=O)NC)ccnc23)ncn1 + Cn1nnc2c(C(N)=O)ncn2c1=O , please.
A) > 10 µM

====

system: VA-ES-BJ tumor spheroid viability; experiment: Anticancer human tumor VA-ES-BJ cell line growth inhibition; conditions: curve of first compound; second compound 0.003 µM; spheroids with HUVEC and MSC;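 note: spheroids exposed to compounds for seven days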
Each record here notes measured IC50.

[2H]c1nc(C)nc([2H])c1-c1cc(NC[C@@H](C)c2cccc3c(C(=O)NC)ccnc23)ncn1 + CC[C@@]1(O)C(=O)OCc2c1cc1n(c2=O)Cc2cc3c(CN(C)C)c(O)ccc3nc2-1; > 10 µM
Cc1cc(C)c(CNC(=O)c2cc(-c3ccc(CN4CCOCC4)cc3)cc3c2cnn3C2CCCC2)c(=O)[nH]1 + CC[C@@]1(O)C(=O)OCc2c1cc1n(c2=O)Cc2cc3c(CN(C)C)c(O)ccc3nc2-1; > 10 µM

As a next step, examine the compound that follows.
Q) // IC50 lookup, key: COc1ccc([C@@H](O)c2cc(-c3ncnc4cc(N5CCOCC5)ccc34)c(F)cc2Cl)nn1 + COc1cc2c(cc1O)CCNC21CSC2c3c(OC(C)=O)c(C)c4c(c3C(COC1=O)N1C(O)C3Cc5cc(C)c(OC)c(O)c5C(C21)N3C)OCO4
A) < 0.0316 µM

====

viability, T/C values, listed per item
tested on: VA-ES-BJ tumor spheroid viability; test: Anticancer human tumor VA-ES-BJ cell line growth inhibition; conditions: second compound 0.0003 µM; first compound 1 µM; stronger effect = lower value; spheroids with HUVEC and MSC;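 note: spheroids exposed to compounds for seven days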;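 for viability, T/C: percent of DMSO vehicle control viability so 100% = untreated growth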

Example compounds with recorded viability, T/C:
COc1cc(C)[nH]c(=O)c1CN1CCc2c(Cl)cc(C(OC)C3COC3)c(Cl)c2C1=O (stereo not drawn) + COc1cc2c(cc1O)CCNC21CSC2c3c(OC(C)=O)c(C)c4c(c3C(COC1=O)N1C(O)C3Cc5cc(C)c(OC)c(O)c5C(C21)N3C)OCO4; 36.7%
[2H]c1nc(C)nc([2H])c1-c1cc(NC[C@@H](C)c2cccc3c(C(=O)NC)ccnc23)ncn1 + COc1cc2c(cc1O)CCNC21CSC2c3c(OC(C)=O)c(C)c4c(c3C(COC1=O)N1C(O)C3Cc5cc(C)c(OC)c(O)c5C(C21)N3C)OCO4; 42.1%

Here is another compound to look at.
Q) Bench note: what viability, T/C did COc1ccc([C@@H](O)c2cc(-c3ncnc4cc(N5CCOCC5)ccc34)c(F)cc2Cl)nn1 + COc1cc2c(cc1O)CCNC21CSC2c3c(OC(C)=O)c(C)c4c(c3C(COC1=O)N1C(O)C3Cc5cc(C)c(OC)c(O)c5C(C21)N3C)OCO4 show?
A) 14%

====

system: VA-ES-BJ tumor spheroid viability; experiment: Anticancer human tumor VA-ES-BJ cell line growth inhibition; conditions: curve of first compound; second compound 0.003 µM; spheroids with HUVEC and MSC;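 note: spheroids exposed to compounds for seven days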
pIC50: −log10 of the molar value.
METRIC: pIC50

[2H]c1nc(C)nc([2H])c1-c1cc(NC[C@@H](C)c2cccc3c(C(=O)NC)ccnc23)ncn1 + COc1cc2c(cc1O)CCNC21CSC2c3c(OC(C)=O)c(C)c4c(c3C(COC1=O)N1C(O)C3Cc5cc(C)c(OC)c(O)c5C(C21)N3C)OCO4; > 7.50
Cc1cc(C)c(CNC(=O)c2cc(-c3ccc(CN4CCOCC4)cc3)cc3c2cnn3C2CCCC2)c(=O)[nH]1 + COc1cc2c(cc1O)CCNC21CSC2c3c(OC(C)=O)c(C)c4c(c3C(COC1=O)N1C(O)C3Cc5cc(C)c(OC)c(O)c5C(C21)N3C)OCO4; > 7.50

Q) What measured pIC50 goes with CC1COCCN1c1cc(-c2ccnn2C)c2ccnc(-c3ccn[nH]3)c2n1 (stereo not drawn) + COc1cc2c(cc1O)CCNC21CSC2c3c(OC(C)=O)c(C)c4c(c3C(COC1=O)N1C(O)C3Cc5cc(C)c(OC)c(O)c5C(C21)N3C)OCO4 ?
A) > 7.50
